Tested on: CN0375-F725-PDC KRAS spheroid viability
Assay: Anticancer human tumor CN0375-F725-PDC patient-derived colon carcinoma cell line growth inhibition [KRAS2]
Conditions: second compound 10 µM; first compound 0.001 µM; hits give low values; spheroids with HUVEC and MSC
Label 1.0 when viability, T/C is strictly below 9%; otherwise label 0.0.

Illustrative cases are given below, each with its answer.
{"Molecule": "CN(C)C/C=C/C(=O)Nc1cc2c(Nc3ccc(F)c(Cl)c3)ncnc2cc1O[C@H]1CCOC1 + C=CC(=O)N1CCN(c2nc(=O)n(-c3c(C)ccnc3C(C)C)c3nc(-c4c(O)cccc4F)c(F)cc23)C(C)C1", "Target system": "CN0375-F725-PDC KRAS spheroid viability", "Assigned label": 0.0}
{"Molecule": "CC(=O)Nc1cccc(-n2c(=O)n(C3CC3)c(=O)c3c(Nc4ccc(I)cc4F)n(C)c(=O)c(C)c32)c1 + C=CC(=O)N1CCN(c2nc(=O)n(-c3c(C)ccnc3C(C)C)c3nc(-c4c(O)cccc4F)c(F)cc23)C(C)C1", "Target system": "CN0375-F725-PDC KRAS spheroid viability", "Assigned label": 0.0}
{"Molecule": "CC(C)n1nc(-c2ccc3oc(N)nc3c2)c2c(N)ncnc21 + CNCc1ccccc1-c1csc(C(C)Nc2nc(C)nc3cc(OC)c(OC)cc23)c1", "Target system": "CN0375-F725-PDC KRAS spheroid viability", "Assigned label": 1.0}
{"Molecule": "Cn1ncnc1[C@H]1c2n[nH]c(=O)c3cc(F)cc(c23)N[C@@H]1c1ccc(F)cc1 + CNCc1ccccc1-c1csc(C(C)Nc2nc(C)nc3cc(OC)c(OC)cc23)c1", "Target system": "CN0375-F725-PDC KRAS spheroid viability", "Assigned label": 1.0}

For CC(=O)Nc1cccc(-n2c(=O)n(C3CC3)c(=O)c3c(Nc4ccc(I)cc4F)n(C)c(=O)c(C)c32)c1 + COc1cc2nc(C)nc(NC(C)c3cc(N)cc(C(F)(F)F)c3)c2cc1OC1CCOC1 , is the recorded viability, T/C below the cut-off of 9%?
0.0

---

Tested on: CN0375-F725-PDC KRAS spheroid viability
Assay: Anticancer human tumor CN0375-F725-PDC cell line growth inhibition [KRAS2];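 further: spheroids exposed to agents for 7 days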
Details: second compound 0.316 µM; first compound 0.00316 µM; hits give low values; spheroids with HUVEC and MSC
Readout type: viability, T/C (%)
Kindly provide the numeric value in % only, without the unit symbol.

// worked examples, viability, T/C included
{"Molecule": "CN(C)C/C=C/C(=O)Nc1cc2c(Nc3ccc(F)c(Cl)c3)ncnc2cc1O[C@H]1CCOC1 + C=CC(=O)N1CCN(c2nc(OCC3CCCN3C)nc3c2CCN(c2cccc4cccc(C)c24)C3)CC1CC#N", "viability, T/C / %": 84.2}
{"Molecule": "CN(C)C/C=C/C(=O)Nc1cc2c(Nc3ccc(F)c(Cl)c3)ncnc2cc1O[C@H]1CCOC1 + C=CC(=O)N1CCN(c2nc(=O)n(-c3c(C)ccnc3C(C)C)c3nc(-c4c(O)cccc4F)c(F)cc23)C(C)C1", "viability, T/C / %": 84.2}
{"Molecule": "CC(=O)Nc1cccc(-n2c(=O)n(C3CC3)c(=O)c3c(Nc4ccc(I)cc4F)n(C)c(=O)c(C)c32)c1 + C=CC(=O)N1CCN(c2nc(OCC3CCCN3C)nc3c2CCN(c2cccc4cccc(C)c24)C3)CC1CC#N", "viability, T/C / %": 50.8}
{"Molecule": "Cn1ncnc1[C@H]1c2n[nH]c(=O)c3cc(F)cc(c23)N[C@@H]1c1ccc(F)cc1 + C=CC(=O)N1CCN(c2nc(OCC3CCCN3C)nc3c2CCN(c2cccc4cccc(C)c24)C3)CC1CC#N", "viability, T/C / %": 100}

Requested field: viability, T/C. Item: Cn1ncnc1[C@H]1c2n[nH]c(=O)c3cc(F)cc(c23)N[C@@H]1c1ccc(F)cc1 + CC1OCC2(CCN(c3cnc(Sc4ccnc(N)c4Cl)c(N)n3)CC2)C1N
87.8
